# test-summary: Elimination half life in Wistar rat 65 mg/kg, po administered as single dose
# Assay type: ADME, organism-based
# condition-set: in vivo, read-out: beta t1/2 (converted)
property-measured: half-life (h)
Give the quantity in h, number only.

Recorded half-life (compound CCOc1ccc(Oc2cc(S(=O)(=O)N(C)C)cnc2N2CCC(Oc3ccc(Cl)cc3)CC2)cc1 ): 9
